tested on: LoVo; test: Cytotoxicity against human doxorubicin resistant LoVo cells after 48 hrs by SRB assay; format: functional
Please go through the items and note down their TGI.
Answer as a quantity: numeral, then unit.

For every record below, what is its TGI?
1. C/C=C1\NC(=O)[C@H](Cc2ccccc2)NC(=O)[C@@H](C(C)C)NC(=O)[C@@H]([C@H](C)CC)NC(=O)[C@H](NC(=O)[C@H](NC(=O)[C@H](CCCN)NC(=O)[C@H]2CCCN2C(=O)[C@H](NC(=O)[C@@H](NC(=O)[C@@H](NC(=O)[C@H](NC(=O)CCCC(C)C)C(C)C)[C@@H](C)O)[C@@H](C)O)C(C)C)[C@H](C)CC)[C@H](C)OC(=O)[C@H](C(C)C)NC1=O
2. C/C=C1\NC(=O)[C@H](Cc2ccccc2)NC(=O)[C@@H](C(C)C)NC(=O)[C@@H]([C@H](C)CC)NC(=O)[C@H](NC(=O)[C@H](NC(=O)[C@H](CCCN)NC(=O)[C@H]2CCCN2C(=O)[C@H](NC(=O)[C@@H](NC(=O)[C@@H](NC(=O)[C@@H](C)NC(=O)CCCC(C)C)[C@@H](C)O)C(C)C)C(C)C)[C@H](C)CC)[C@H](C)OC(=O)[C@H](C(C)C)NC1=O
3. C/C=C1\NC(=O)[C@H](Cc2ccc3ccccc3c2)NC(=O)[C@@H](C(C)C)NC(=O)[C@@H]([C@H](C)CC)NC(=O)[C@H](NC(=O)[C@H](NC(=O)[C@H](CCCN)NC(=O)[C@H]2CCCN2C(=O)[C@H](NC(=O)[C@@H](NC(=O)[C@@H](NC(=O)[C@H](NC(=O)CCCC(C)C)C(C)C)[C@@H](C)O)C(C)C)C(C)C)[C@H](C)CC)[C@H](C)OC(=O)[C@H](C(C)C)NC1=O
4. C/C=C1\NC(=O)[C@H](Cc2ccc(F)c(F)c2)NC(=O)[C@@H](C(C)C)NC(=O)[C@@H]([C@H](C)CC)NC(=O)[C@H](NC(=O)[C@H](NC(=O)[C@H](CCCN)NC(=O)[C@H]2CCCN2C(=O)[C@H](NC(=O)[C@@H](NC(=O)[C@@H](NC(=O)[C@H](NC(=O)CCCC(C)C)C(C)C)[C@@H](C)O)C(C)C)C(C)C)[C@H](C)CC)[C@H](C)OC(=O)[C@H](C(C)C)NC1=O
5. C/C=C1\NC(=O)[C@@H]2Cc3ccccc3CN2C(=O)[C@@H](C(C)C)NC(=O)[C@@H]([C@H](C)CC)NC(=O)[C@H](NC(=O)[C@H](NC(=O)[C@H](CCCN)NC(=O)[C@H]2CCCN2C(=O)[C@H](NC(=O)[C@@H](NC(=O)[C@@H](NC(=O)[C@H](NC(=O)CC[C@@H](C)CC)C(C)C)[C@@H](C)O)C(C)C)C(C)C)[C@H](C)CC)[C@H](C)OC(=O)[C@H](C(C)C)NC1=O
6. C/C=C1\NC(=O)[C@H](Cc2ccccc2)NC(=O)[C@@H](C(C)C)NC(=O)[C@@H](C(C)C)NC(=O)[C@H](NC(=O)[C@H](NC(=O)[C@H](CCCN)NC(=O)[C@H]2CCCN2C(=O)[C@H](NC(=O)[C@@H](NC(=O)[C@@H](NC(=O)[C@H](NC(=O)CCCC(C)C)C(C)C)[C@@H](C)O)C(C)C)C(C)C)C(C)C)[C@H](C)OC(=O)[C@H](C(C)C)NC1=O
7. C/C=C1\NC(=O)[C@H](Cc2ccccc2)NC(=O)[C@@H](C(C)C)NC(=O)[C@@H]([C@H](C)CC)NC(=O)[C@H](NC(=O)[C@H](NC(=O)[C@H](CCCNC(=O)C(F)(F)F)NC(=O)[C@H]2CCCN2C(=O)[C@H](NC(=O)[C@@H](NC(=O)[C@@H](NC(=O)[C@H](NC(=O)CC[C@@H](C)CC)C(C)C)[C@@H](C)OC(=O)C(F)(F)F)C(C)C)C(C)C)[C@H](C)CC)[C@H](C)OC(=O)[C@H](C(C)C)NC1=O

A.
1: 2.9 µM; 2: 1.27 µM; 3: 0.029 µM; 4: 0.0205 µM; 5: 1.25 µM; 6: 1.67 µM; 7: 0.396 µM

Q. What value of TGI has been reported for the following molecule? "C/C=C1\NC(=O)[C@H](Cc2ccccc2)NC(=O)[C@@H](C(C)C)NC(=O)[C@@H]([C@H](C)CC)NC(=O)[C@H](NC(=O)[C@H](NC(=O)[C@H](CCCN)NC(=O)[C@H]2CCCN2C(=O)[C@H](NC(=O)[C@@H](NC(=O)[C@@H](NC(=O)[C@@H](CC(C)C)NC(=O)CCCC(C)C)[C@@H](C)O)C(C)C)C(C)C)[C@H](C)CC)[C@H](C)OC(=O)[C@H](C(C)C)NC1=O"
A. 0.329 µM

====

test system: PANC-1; assay: Cytotoxicity against human PANC1 cells after 48 hrs by SRB assay; type: functional; conditions: PANC-1, 48 h, read-out: LC50 (the source's name)
Measured endpoint: CC50

| Smiles entry | Target | CC50 |
| --- | --- | --- |
| C/C=C1\NC(=O)[C@H](Cc2ccccc2)NC(=O)[C@@H](C(C)C)NC(=O)[C@@H]([C@H](C)CC)NC(=O)[C@H](NC(=O)[C@H](NC(=O)[C@H](CCCN)NC(=O)[C@H]2CCCN2C(=O)[C@H](NC(=O)[C@@H](NC(=O)[C@@H](NC(=O)[C@@H](CCC(=O)O)NC(=O)CCCC(C)C)[C@@H](C)O)C(C)C)C(C)C)[C@H](C)CC)[C@H](C)OC(=O)[C@H](C(C)C)NC1=O | PANC-1 | 2770 nM |
| C/C=C1\NC(=O)[C@H](Cc2ccccc2)NC(=O)[C@@H](C(C)C)NC(=O)[C@@H]([C@H](C)CC)NC(=O)[C@H](NC(=O)[C@H](NC(=O)[C@H](CCCN)NC(=O)[C@H]2CCCN2C(=O)[C@H](NC(=O)[C@@H](NC(=O)[C@@H](NC(=O)[C@H](NC(=O)CCCCC(C)=O)C(C)C)[C@@H](C)O)C(C)C)C(C)C)[C@H](C)CC)[C@H](C)OC(=O)[C@H](C(C)C)NC1=O | PANC-1 | 2290 nM |
| C/C=C1\NC(=O)[C@H](Cc2ccccc2)NC(=O)[C@@H](C(C)C)NC(=O)[C@@H]([C@H](C)CC)NC(=O)[C@H](NC(=O)[C@H](NC(=O)[C@H](CCCN)NC(=O)[C@H]2CCCN2C(=O)[C@H](NC(=O)[C@@H](NC(=O)[C@@H](NC(=O)[C@H](NC(=O)CCCC(C)C)C(C)C)[C@@H](C)O)C(C)C)C(C)C)[C@H](C)CC)CNC(=O)[C@H](C(C)C)NC1=O | PANC-1 | 2560 nM |
| C/C=C1\NC(=O)[C@H](Cc2ccccc2)NC(=O)[C@@H](C(C)C)NC(=O)[C@@H]([C@H](C)CC)NC(=O)[C@H](NC(=O)[C@H](NC(=O)[C@H](CCCN)NC(=O)[C@H]2CCCN2C(=O)[C@H](NC(=O)CCCCCCCCCCCCC)C(C)C)[C@H](C)CC)[C@H](C)OC(=O)[C@H](C(C)C)NC1=O | PANC-1 | 2160 nM |
| CC[C@@H](C)[C@@H](NC(=O)[C@H](CCCN)NC(=O)[C@H]1CCCN1C(=O)[C@H](NC(=O)[C@@H](NC(=O)[C@@H](NC(=O)[C@H](NC(=O)CCCC(C)C)C(C)C)[C@@H](C)O)C(C)C)C(C)C)C(=O)N[C@H]1C(=O)N[C@H]([C@H](C)CC)C(=O)N[C@H](C(C)C)C(=O)N[C@@H](Cc2ccccc2)C(=O)N[C@H]([C@H](C)O)C(=O)N[C@@H](C(C)C)C(=O)O[C@H]1C | PANC-1 | 2210 nM |

Pending compound:
Q. Please look up its CC50: "C/C=C1\NC(=O)[C@H](Cc2ccccc2)NC(=O)[C@@H](C(C)C)NC(=O)[C@@H]([C@H](C)CC)NC(=O)[C@H](NC(=O)[C@H](NC(=O)[C@H](CCCN)NC(=O)[C@@H]2CC[C@H](c3ccccc3)N2C(=O)[C@H](NC(=O)[C@@H](NC(=O)[C@@H](NC(=O)[C@H](NC(=O)CC[C@@H](C)CC)C(C)C)[C@@H](C)O)C(C)C)C(C)C)[C@H](C)CC)[C@H](C)OC(=O)[C@H](C(C)C)NC1=O"
A. 1940 nM

====

tested on: SK-BR-3; experiment: Cytotoxicity against human SKBR3 cells after 48 hrs by SRB assay; type: functional; conditions: SK-BR-3, 48 h, read-out: LC50 (the source's name)
Answer each item with its documented CC50.
Numbers only, in nM.

| Smiles entry | Target | Measured endpoint | Assay value |
| --- | --- | --- | --- |
| C/C=C1\NC(=O)[C@H](Cc2ccccc2)NC(=O)[C@@H](C(C)C)NC(=O)[C@@H]([C@H](C)CC)NC(=O)[C@H](NC(=O)[C@H](NC(=O)[C@H](CCCN)NC(=O)[C@H]2CCCN2C(=O)[C@H](NC(=O)[C@@H](NC(=O)[C@H](CCCN)NC(=O)[C@H](NC(=O)CCCC(C)C)C(C)C)C(C)C)C(C)C)[C@H](C)CC)[C@H](C)OC(=O)[C@H](C(C)C)NC1=O | SK-BR-3 | CC50 | 296 |
| C/C=C1\NC(=O)[C@H](Cc2c(F)c(F)c(F)c(F)c2F)NC(=O)[C@@H](C(C)C)NC(=O)[C@@H]([C@H](C)CC)NC(=O)[C@H](NC(=O)[C@H](NC(=O)[C@H](CCCN)NC(=O)[C@H]2CCCN2C(=O)[C@H](NC(=O)[C@@H](NC(=O)[C@@H](NC(=O)[C@H](NC(=O)CC[C@@H](C)CC)C(C)C)[C@@H](C)O)C(C)C)C(C)C)[C@H](C)CC)[C@H](C)OC(=O)[C@H](C(C)C)NC1=O | SK-BR-3 | CC50 | 435 |
| C=C1NC(=O)[C@H](Cc2ccccc2)NC(=O)[C@@H](C(C)C)NC(=O)[C@@H]([C@H](C)CC)NC(=O)[C@H](NC(=O)[C@H](NC(=O)[C@H](CCCN)NC(=O)[C@H]2CCCN2C(=O)[C@H](NC(=O)[C@@H](NC(=O)[C@@H](NC(=O)[C@H](NC(=O)CCCC(C)C)C(C)C)[C@@H](C)O)C(C)C)C(C)C)[C@H](C)CC)[C@H](C)OC(=O)[C@H](C(C)C)NC1=O | SK-BR-3 | CC50 | 360 |

Pending compound:
Q. What reported CC50 corresponds to "C/C=C1\NC(=O)[C@H](Cc2ccccc2)NC(=O)[C@@H](C(C)C)NC(=O)[C@@H]([C@H](C)CC)NC(=O)[C@H](NC(=O)[C@H](NC(=O)[C@H](CCCNC(=O)/C=C/CCC)NC(=O)[C@H]2CCCN2C(=O)[C@H](NC(=O)[C@@H](NC(=O)[C@@H](NC(=O)[C@H](NC(=O)CCCC(C)C)C(C)C)[C@@H](C)O)C(C)C)C(C)C)[C@H](C)CC)[C@H](C)OC(=O)[C@H](C(C)C)NC1=O" on SK-BR-3?
A. 102

The reported numbers originate from ChEMBL document CHEMBL1156597.
